Please go through the items and note down their koff.
Molecular target: T1, Human Angiopoietin-2 full-length (hAng2) (human, UniProt O15123 19-496)
T1 construct: The cell assays used full-length hAng2 from R&D Systems; also called human Ang2; A2
T1 sequence: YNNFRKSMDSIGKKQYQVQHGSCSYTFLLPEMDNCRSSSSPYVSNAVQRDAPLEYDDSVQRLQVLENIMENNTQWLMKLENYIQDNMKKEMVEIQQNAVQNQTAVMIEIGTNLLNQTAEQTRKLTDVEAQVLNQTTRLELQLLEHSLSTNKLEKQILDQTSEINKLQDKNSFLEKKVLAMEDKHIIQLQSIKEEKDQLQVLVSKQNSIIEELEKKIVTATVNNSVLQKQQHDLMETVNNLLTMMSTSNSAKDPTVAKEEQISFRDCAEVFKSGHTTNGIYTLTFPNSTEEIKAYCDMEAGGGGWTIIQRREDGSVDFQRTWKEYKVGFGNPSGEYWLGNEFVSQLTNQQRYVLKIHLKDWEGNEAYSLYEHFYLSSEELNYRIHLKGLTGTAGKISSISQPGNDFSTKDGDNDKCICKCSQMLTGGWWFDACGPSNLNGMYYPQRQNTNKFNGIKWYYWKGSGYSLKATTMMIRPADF
Experiment: BLI (Octet), antibody fixed on AR2G sensor, hAng2 3.125-50 nM in solution, 1:1 global fit
Numbers only here, please. The scale is s⁻¹.

Reported koff for humanized anti-Ang2 antibody 2C8H31 (antibody, V domains shown, Full-length human IgG1) VH: QVQLVQSGAEVKKPGASVKVSCKASGYSFTSYWMHWVRQAPGQGLEWIGMIDPSDSETRLNQKFKDKASMTRDTSTSTVYMELSSLRSEDTAVYYCARRFYYGSDWYFDVWGQGTLVTVSS VL: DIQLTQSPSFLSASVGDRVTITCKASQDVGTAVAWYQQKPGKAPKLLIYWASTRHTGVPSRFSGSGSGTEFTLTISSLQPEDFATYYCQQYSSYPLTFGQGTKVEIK : what is it?
2.21e-05

Entry 4B9H11G4 (human IgG4 class antibody of 4B9H11) (antibody, V domains shown, The heavy chain constant region was replaced by an IgG4 class constant region; The sentence prints '4B9 heavy chain gene' where 4B9H11 is meant; also called 4B9H11-IgG4) VH: QVQLVESGGGLVKPGGSLRLSCAASGFTFSDYYMYWIRQAPGKGLEWVSTISVGGSFTYYPDSVKGRFTISRDNAKNSLYLQMNSLRAEDTAVYYCARDWGLRPWFVYWGQGTLVTVSS VL: DIQMTQSPSSLSASVGDRVTITCKASQDVSTAVAWYQQKPGKAPKLLIYWASTRHTGVPSRFSGSGSGTDFTLTISSLQPEDFATYYCQQHYSTPPTFGQGTKVEIK has what koff?
3.46e-05

I'd like to know its koff. The binder in question is humanized anti-Ang2 antibody 2C8H21 (antibody, V domains shown, Full-length human IgG1) VH: QVQLVQSGAEVKKPGASVKVSCKASGYSFTSYWMHWVRQAPGQGLEWIGMIDPSDSETRLNQKFKDRVTMTRDTSTSTVYMELSSLRSEDTAVYYCARRFYYGSDWYFDVWGQGTLVTVSS VL: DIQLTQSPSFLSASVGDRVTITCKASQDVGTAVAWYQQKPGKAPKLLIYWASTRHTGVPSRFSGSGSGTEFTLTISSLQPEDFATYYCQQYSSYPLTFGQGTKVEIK
1.5e-05

What measured koff goes with humanized anti-Ang2 antibody 2C8H33 (antibody, V domains shown, Full-length human IgG1) VH: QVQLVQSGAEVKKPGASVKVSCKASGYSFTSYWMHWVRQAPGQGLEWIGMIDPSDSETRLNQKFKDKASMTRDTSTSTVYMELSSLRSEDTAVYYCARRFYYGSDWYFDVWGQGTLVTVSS VL: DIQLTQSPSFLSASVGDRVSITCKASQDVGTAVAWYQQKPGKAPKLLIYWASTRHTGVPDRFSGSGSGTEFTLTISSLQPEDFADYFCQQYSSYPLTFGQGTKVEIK ?
3.99e-06

Quick check: koff of humanized anti-Ang2 antibody 2C8H22 (antibody, V domains shown, Full-length human IgG1) VH: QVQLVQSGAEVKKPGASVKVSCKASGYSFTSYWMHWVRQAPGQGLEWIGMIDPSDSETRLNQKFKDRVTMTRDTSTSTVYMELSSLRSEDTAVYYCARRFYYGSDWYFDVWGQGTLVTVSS VL: DIQLTQSPSFLSASVGDRVSITCKASQDVGTAVAWYQQKPGKAPKLLIYWASTRHTGVPDRFSGSGSGTEFTLTISSLQPEDFATYYCQQYSSYPLTFGQGTKVEIK ?
6.84e-06

# query: koff of entry humanized anti-Ang2 antibody 2C8H52 (antibody, V domains shown, Full-length human IgG1) VH: QVQLVQSGAEVKKPGASVKVSCKASGYSFTSYWMHWVKQAPGQGLEWIGMIDPSDSETRLNQKFKDKASLTVDTSTSTVYMELSSLRSEDTAVYYCARRFYYGSDWYFDVWGQGTLVTVSS VL: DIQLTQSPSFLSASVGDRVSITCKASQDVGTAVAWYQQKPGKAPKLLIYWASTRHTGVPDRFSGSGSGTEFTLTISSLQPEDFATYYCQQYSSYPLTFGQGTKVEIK
1.99e-05

I'd like to know its koff. The binder in question is humanized anti-Ang2 antibody 2C8H32 (antibody, V domains shown, Full-length human IgG1) VH: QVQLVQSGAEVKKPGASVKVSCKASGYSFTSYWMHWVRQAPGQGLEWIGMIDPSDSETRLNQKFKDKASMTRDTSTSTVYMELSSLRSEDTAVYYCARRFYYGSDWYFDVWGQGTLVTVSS VL: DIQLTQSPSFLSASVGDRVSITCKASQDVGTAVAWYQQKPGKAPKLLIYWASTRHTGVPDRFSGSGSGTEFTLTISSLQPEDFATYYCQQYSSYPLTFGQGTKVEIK
1.49e-05

Would you mind telling me what koff value was observed for 2C8H11G4 (human IgG4 class antibody of 2C8H11) (antibody, V domains shown, The heavy chain constant region (CH1-hinge-CH2-CH3) was replaced by an IgG4 class constant region; also called 2C8H11-IgG4) VH: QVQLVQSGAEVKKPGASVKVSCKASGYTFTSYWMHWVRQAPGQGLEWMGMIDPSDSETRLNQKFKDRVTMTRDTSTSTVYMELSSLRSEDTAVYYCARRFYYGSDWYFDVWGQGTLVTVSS VL: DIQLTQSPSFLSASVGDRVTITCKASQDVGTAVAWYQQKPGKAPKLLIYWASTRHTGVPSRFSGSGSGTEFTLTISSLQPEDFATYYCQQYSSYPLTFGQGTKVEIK ?
4.35e-06

I would be grateful if you could share the reported koff for humanized anti-Ang2 antibody 2C8H42 (antibody, V domains shown, Full-length human IgG1) VH: QVQLVQSGAEVKKPGASVKVSCKASGYSFTSYWMHWVKQAPGQGLEWIGMIDPSDSETRLNQKFKDKASMTRDTSTSTVYMELSSLRSEDTAVYYCARRFYYGSDWYFDVWGQGTLVTVSS VL: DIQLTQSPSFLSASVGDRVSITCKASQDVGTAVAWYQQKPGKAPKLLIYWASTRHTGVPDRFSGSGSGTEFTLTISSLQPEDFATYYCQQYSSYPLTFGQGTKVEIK .
3.07e-05

// lookup koff for humanized anti-Ang2 antibody 2C8H41 (antibody, V domains shown, Full-length human IgG1) VH: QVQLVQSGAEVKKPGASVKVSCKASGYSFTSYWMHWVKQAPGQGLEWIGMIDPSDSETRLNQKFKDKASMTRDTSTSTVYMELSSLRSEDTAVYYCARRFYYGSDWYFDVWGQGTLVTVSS VL: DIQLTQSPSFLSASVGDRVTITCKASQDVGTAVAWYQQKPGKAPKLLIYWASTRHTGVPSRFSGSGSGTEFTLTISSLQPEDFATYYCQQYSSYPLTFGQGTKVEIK
1.67e-05
